- Tested On: MCR-1 (Homo sapiens, UniProt Q01726)
- Construct: expressed in transfected cells; host or cells: HEK 293
- Sequence (Q01726 whole entry): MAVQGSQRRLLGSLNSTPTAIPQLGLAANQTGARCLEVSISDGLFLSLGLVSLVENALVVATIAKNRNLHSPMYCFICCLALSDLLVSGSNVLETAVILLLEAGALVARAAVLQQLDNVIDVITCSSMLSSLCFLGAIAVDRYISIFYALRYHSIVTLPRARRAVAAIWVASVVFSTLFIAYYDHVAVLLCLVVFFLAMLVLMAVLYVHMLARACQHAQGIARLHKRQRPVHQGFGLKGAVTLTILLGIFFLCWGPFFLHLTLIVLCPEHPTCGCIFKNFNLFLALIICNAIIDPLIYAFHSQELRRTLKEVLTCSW
- Assay Info: Melanocortin receptor binding assay, competition with 125I-HP 467, HEK 293 cells expressing hMCR-1
- Measurement Parameters: displacement of 125I-HP 467 at 10 μM isoquinoline compound; second of duplicate
Measurement Label: % Disp. MC-1 10 μM (%)

{"Compound": "CNC(CN)CN1Cc2ccccc2C(CNC2CCCCC2)C1c1ccccc1F (stereo not shown)", "Readout Unit": "%", "% Disp. MC-1 10 μM": 44.7}
{"Compound": "CNC(CN)CN1Cc2ccccc2C(CNC2CCCCC2)C1c1cccs1 (stereo not shown)", "Readout Unit": "%", "% Disp. MC-1 10 μM": 58.5}
{"Compound": "COc1ccc(Oc2cccc(C3C(CNC4CCCCC4)c4ccccc4CN3CCN)c2)cc1 (stereo not shown)", "Readout Unit": "%", "% Disp. MC-1 10 μM": 56.1}
{"Compound": "CNC(CN)CN1Cc2ccccc2C(CNC2CCCCC2)C1c1ccc([N+](=O)[O-])c(O)c1 (mixture of isomers)", "Readout Unit": "%", "% Disp. MC-1 10 μM": 41.7}
